molecular target: BRM (Homo sapiens, UniProt P51531); construct: made in house; host or cells: High Five insect cells; experiment: ATPase catalytic activity assay (ADP-Glo), BRM; format: biochemical; conditions: ATPase assay, selectivity BRG1/BRM, Table 10
Sequence (P51531 whole entry): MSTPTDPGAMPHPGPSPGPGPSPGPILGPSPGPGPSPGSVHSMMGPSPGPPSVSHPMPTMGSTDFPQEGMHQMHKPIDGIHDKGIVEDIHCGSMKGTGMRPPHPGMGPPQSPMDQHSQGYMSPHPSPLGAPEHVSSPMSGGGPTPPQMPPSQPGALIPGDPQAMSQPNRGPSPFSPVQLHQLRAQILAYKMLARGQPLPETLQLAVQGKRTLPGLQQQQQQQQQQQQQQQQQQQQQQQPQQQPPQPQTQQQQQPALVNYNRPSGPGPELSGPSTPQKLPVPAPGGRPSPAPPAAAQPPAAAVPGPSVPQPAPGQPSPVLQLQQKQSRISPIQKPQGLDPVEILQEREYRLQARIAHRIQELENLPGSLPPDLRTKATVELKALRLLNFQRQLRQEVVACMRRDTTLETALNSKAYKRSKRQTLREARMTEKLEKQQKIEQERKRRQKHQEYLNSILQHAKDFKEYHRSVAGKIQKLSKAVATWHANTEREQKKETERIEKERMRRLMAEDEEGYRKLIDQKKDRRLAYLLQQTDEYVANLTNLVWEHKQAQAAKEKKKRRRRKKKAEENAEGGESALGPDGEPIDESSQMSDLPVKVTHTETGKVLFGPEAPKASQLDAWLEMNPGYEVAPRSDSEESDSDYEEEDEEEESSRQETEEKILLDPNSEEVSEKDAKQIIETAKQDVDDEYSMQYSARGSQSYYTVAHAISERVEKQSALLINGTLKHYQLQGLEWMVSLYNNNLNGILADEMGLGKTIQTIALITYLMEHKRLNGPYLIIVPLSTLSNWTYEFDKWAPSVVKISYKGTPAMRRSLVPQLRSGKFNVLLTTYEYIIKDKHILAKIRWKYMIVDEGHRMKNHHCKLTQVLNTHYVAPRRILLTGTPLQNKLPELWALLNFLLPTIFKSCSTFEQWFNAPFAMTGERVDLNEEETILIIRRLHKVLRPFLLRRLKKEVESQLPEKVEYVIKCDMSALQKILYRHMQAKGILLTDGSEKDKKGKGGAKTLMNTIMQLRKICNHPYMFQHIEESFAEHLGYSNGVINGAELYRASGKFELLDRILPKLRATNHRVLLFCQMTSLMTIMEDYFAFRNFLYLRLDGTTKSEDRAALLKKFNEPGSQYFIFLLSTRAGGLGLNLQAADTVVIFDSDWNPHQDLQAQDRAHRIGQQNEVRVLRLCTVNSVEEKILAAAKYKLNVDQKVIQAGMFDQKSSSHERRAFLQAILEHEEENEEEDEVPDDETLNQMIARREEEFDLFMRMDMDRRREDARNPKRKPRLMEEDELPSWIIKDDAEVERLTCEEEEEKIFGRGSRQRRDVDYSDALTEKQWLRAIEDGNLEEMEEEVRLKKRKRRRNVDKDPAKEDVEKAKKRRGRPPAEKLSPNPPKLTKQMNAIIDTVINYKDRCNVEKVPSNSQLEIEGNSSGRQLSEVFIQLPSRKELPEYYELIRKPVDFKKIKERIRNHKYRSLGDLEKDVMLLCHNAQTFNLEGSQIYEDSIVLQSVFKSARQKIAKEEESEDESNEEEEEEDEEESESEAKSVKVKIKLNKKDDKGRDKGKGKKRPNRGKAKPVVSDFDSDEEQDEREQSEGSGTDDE
MEASURED ENDPOINT: Ratio (BRG1 IC50 (μM) divided by BRM IC50 (μM))

# SMILES TEXT, TARGET ENTITY, OBS VALUE
records = [
    ("COCCn1c(C)cc2c(-c3ccc4cnc(CNC(=O)c5cc(F)c6c(c5)S(=O)(=O)[C@@H](F)CCO6)cc4n3)cccc21", "BRM (Homo sapiens, UniProt P51531)", 18.80),
    ("O=C(NCc1cc2nc(N3CCOc4ccc([C@H](F)CF)nc43)ccc2cn1)c1cc(F)c2c(c1)S(=O)(=O)[C@@H](F)COC2", "BRM (Homo sapiens, UniProt P51531)", 28.84),
    ("O=C(NCc1cc2nc(-c3cccc([C@H]4CC4(F)F)n3)ccc2cn1)c1cc(F)c2c(c1)S(=O)(=O)[C@@H](F)CCO2", "BRM (Homo sapiens, UniProt P51531)", 26.90),
    ("O=C(NCc1cc2nc(-c3cccc(OC(F)(F)F)n3)ccc2cn1)c1cc(F)c2c(c1)S(=O)(=O)[C@@H](F)COC2", "BRM (Homo sapiens, UniProt P51531)", 20.42),
    ("O=C(NCc1cc2nc(N3CCOc4cc(C5CC5)cnc43)ccc2cn1)c1cc(F)c2c(c1)S(=O)(=O)[C@@H](F)CCO2", "BRM (Homo sapiens, UniProt P51531)", 16.70),
    ("O=C(NCc1cc2cc(-c3cncc(C4CC4)n3)ccc2cn1)c1cc(F)c2c(c1)S(=O)(=O)[C@@H](F)CCO2", "BRM (Homo sapiens, UniProt P51531)", 18.99),
    ("O=C(NCc1cc2nc(N3CCOc4ccc(C5CC5)nc43)ccc2cn1)c1cc(F)c2c(c1)S(=O)(=O)[C@@H](F)CCO2", "BRM (Homo sapiens, UniProt P51531)", 35.69),
    ("O=C(NCc1cc2nc(-c3ccc(C(F)F)c(C4CC4)n3)ccc2cn1)c1cc(F)c2c(c1)S(=O)(=O)[C@@H](F)CCO2", "BRM (Homo sapiens, UniProt P51531)", 18.66),
    ("O=C(NCc1cc2cc(-c3ccc(OC(F)F)c(C4CC4)n3)ccc2cn1)c1cc(F)c2c(c1)S(=O)(=O)[C@@H](F)CCO2", "BRM (Homo sapiens, UniProt P51531)", 10.62),
    ("O=C(NCc1cc2nc(-c3ccnc([C@H]4CC4(F)F)n3)ccc2cn1)c1cc(F)c2c(c1)S(=O)(=O)[C@@H](F)CCO2", "BRM (Homo sapiens, UniProt P51531)", 24.88),
    ("O=C(NCc1cc2nc(N3CCOc4cc(C(F)(F)F)cnc43)ccc2cn1)c1cc(F)c2c(c1)S(=O)(=O)[C@@H](F)CCO2", "BRM (Homo sapiens, UniProt P51531)", 11.56),
    ("[2H]C1([2H])Oc2c(F)cc(C(=O)NCc3cc4nc(N5CCOc6ccc(C(F)F)nc65)ccc4cn3)cc2S(=O)(=O)[C@@]([2H])(F)C1([2H])[2H]", "BRM (Homo sapiens, UniProt P51531)", 14.89),
    ("CCOc1nc(C(F)F)ccc1-c1ccc2cnc(CNC(=O)c3cc(F)c4c(c3)S(=O)(=O)[C@@H](F)CCO4)cc2n1", "BRM (Homo sapiens, UniProt P51531)", 16.49),
]
